Each entry below carries its recorded OD.
# measured.target: Free BSA (Sigma A6003) (UniProt P02769)
# assay.details: ELISA, free BSA coated at 300 ng/well, anti-IgG (gamma) detection
The reply should contain only the number, in OD.

# query: OD of entry 7B10 (antibody, IgM, V domains shown) VH: QVQLQQSGAELAKPGASVKLSCKASGYTFTSYWMHWVKQRPGQGLEWIGYINPSSGYTKYNQKFKDKATLTADKSSSTAYMQLSSLTYEDSAVYYCARGGYYGFAYWGQGTLVTVSA VL: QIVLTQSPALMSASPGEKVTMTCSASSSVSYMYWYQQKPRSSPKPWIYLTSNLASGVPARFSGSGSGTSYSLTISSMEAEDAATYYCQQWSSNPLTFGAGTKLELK
0.077

# query: OD of entry 9H10 (antibody, IgM, V domains shown) VH: QVQLKQSGPGLVQPSQSLSITCTVSGFSLTSYGVHWVRQSPGKGLEWLGVIWSGGSTDYNAAFISRLSISKDNSKSQVFFKMNSLQADDTAIYYCARNYGYDYAMDYWGQGTSVTVSS VL: DILLTQSPAILSVSPGERVSFSCRASQSIGTSIHWYQQRTNGSPRLLIKYASESISGIPSRFSGSGSGTDFTLSINSVESEDIADYYCQQSNSWPFTFGSGTKLEIK
0.095

# query: OD of entry 6C8 (antibody, V domains shown) VH: QVQLQQSGAELVKPGASVKISCKASGYAFSSYWMNWVKQRPGKGLEWIGQIYPGDGDTNYNGKFKGKATLTADKSSSTAYMQLSSLTSEDSAVYFCTRRCYYGLYFDVWGTGTTVTVSS VL: DIKMTQSPSSRYASLGERVTITCKASQDINRYLSWFQQKPGKSPKTLIYRANRLVDGVPSRFSGSGSGQDYSLTISSLEYEDMGIYYCLQYDEFPYTFGGGTKLEIK
0.098

# query: OD of entry 9H11 (antibody, IgM, V domains shown) VH: QVQLQQSGAELAKPGASVKLSCKASGYTFTSYWMHWVKQRPGQGLEWIGYINPSSGYTKYNQKFKDKATLTADKSSSTAYMQLSSLTYEDSAVYYCARGGYYGFAYWGQGTLVTVSA VL: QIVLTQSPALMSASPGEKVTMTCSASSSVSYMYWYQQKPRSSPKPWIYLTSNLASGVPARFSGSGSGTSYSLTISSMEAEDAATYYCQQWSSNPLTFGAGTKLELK
0.105

# query: OD of entry 6B5 (antibody, V domains shown) VH: QVQLQQSDAELVKPGASVKISCKVSGYTFTDHTIHWMKQRPEQGLEWIGYNYPRDGSTKYNEKFKGKATLTADKSSSTAYMQLNSLTSEDSAVYFCAKGFITTVVPSAYWGQGTLVTVSA VL: DVQITQSPSYLAASPGETITINCRASKSISKYLAWYQEKPGKTNKLLIYSGSTLQSGIPSRFSGSGSGTDFTLTISSLEPEDFAMYYCQQHNEYPWTFGGGTKLEIK
1.29
